pIC50 values for Hepatocyte growth factor receptor (Homo sapiens) compiled from several publications are listed below.
pIC50: −log10 of the molar value.

{"compound": "O=C(NCc1ccccc1)C(=O)c1c[nH]c2ccccc12", "pIC50": "< 4.00"}
{"compound": "Cn1cc(-c2cnc3ccc(CCn4nc(-c5ccccc5)ccc4=O)cc3c2)cn1", "pIC50": 7.83}
{"compound": "CCN1CCN(CCCOc2cc3nccc(Oc4c(F)cc(NC(=O)NN5C(=O)CSC5c5c(F)cccc5F)cc4F)c3cc2OC)CC1 (stereo unspecified)", "pIC50": 7.82}
{"compound": "Cn1cc(-c2cnc3nc(O)n(Cc4ccc5ncccc5c4)c3n2)cn1", "pIC50": "< 6.00"}
{"compound": "COc1cc2c(cc1OC)Nc1nccc(Oc3ccc(NC(=O)C4(C(=O)Nc5ccc(F)cc5)CC4)cc3F)c1N=C2", "pIC50": "< 6.00"}
{"compound": "c1cn(Cc2ccc3c(c2)-c2[nH]nc(-c4ccsc4)c2C3)cn1", "pIC50": "< 4.30"}
